Tested on: RAW-Dual (murine macrophage reporter line)
Test: viability score (confluency relative to resting cells, overnight) (fraction); higher = more viable, active = viable (0.7 or more)
Experimental context: modulator concentration 10 µM
Each record here notes measured viability score.
Just the number.

// worked examples, viability score included
> print(dat)
                                   compound                             tested.target  reported.property  reading
1  CSc1nnc(CSc2nc(C)cc(C)n2)n1-c1cccc(C(F)(F)F)c1  RAW-Dual (murine macrophage reporter line)    viability score    0.953
2  COc1ccc(-c2nc(CNC(=O)C3CCN(c4cc(C5CC5)ncn4)CC3)cs2)cc1  RAW-Dual (murine macrophage reporter line)    viability score        1
3   O=C(Cn1cnc(-c2ccc(Cl)cc2)cc1=O)N1CCOCC1  RAW-Dual (murine macrophage reporter line)    viability score        1

If you can, please state the reported viability score value of O=S(=O)(c1ccc(F)cc1)N1CCC(c2nc3ccccc3[nH]2)CC1 .
0.964

If you can, please state the reported viability score value of COc1ccc(N(CC(=O)NCCSCc2ccccc2)S(C)(=O)=O)cc1Cl .
1.01

If you can, please state the reported viability score value of COc1ccc(Br)c(C(=O)N2CCOCC2CO)c1 (stereo not given) .
0.951

If you can, please state the reported viability score value of CCOc1ccc2c(c1)C(C)=CC(C)(C)N2 .
1

If you can, please state the reported viability score value of COc1ccc(Cl)cc1NS(=O)(=O)c1c(C)cc(C)cc1C .
0.982

If you can, please state the reported viability score value of CN(C)c1ccc(C2N(C)c3ccccc3N2C)cc1 .
0.858

If you can, please state the reported viability score value of OCCOCCN1CCN(C(c2ccccc2)c2ccc(Cl)cc2)CC1 (stereo not given) .
1.04

If you can, please state the reported viability score value of COc1cccc(-n2c(SCc3ccc(F)cc3)nc3c([nH]c4ccccc43)c2=O)c1 .
0.972

If you can, please state the reported viability score value of CN(C)CCOC(c1ccccc1)c1ccccc1.Cl .
0.999

If you can, please state the reported viability score value of CC(=O)Oc1ccc(C(=O)Nc2ccccc2Br)cc1 .
0.992

If you can, please state the reported viability score value of CCOC(=O)C1C(=O)C=C(C)C(C(=O)OCC)C1c1ccc(Br)cc1 (stereo not given) .
1

If you can, please state the reported viability score value of O=C1c2ccc(-c3ccc4c(c3)C(=O)N(CCO)C4=O)cc2C(=O)N1CCO .
1

If you can, please state the reported viability score value of CCCC(CCC)C(=O)O .
0.992
